# Experimental Details: Aqueous solubility by visual inspection (Method 12)
# Experimental Parameters: water, thermodynamic from solid
Exercise: state measured solubility for each of the compounds provided.

>  <Compound>
CCCN(CCC)[C@H]1CC[C@H](OC(=O)C(F)(F)ON2C(=O)N3C[C@H]2CC[C@H]3C(N)=O)CC1 [Example 15]

>  <Measurement Kind>
solubility

>  <Observed Result>
> 1000 µg/mL

$$$$
>  <Compound>
COCC(COC)OC(=O)C(F)(F)ON1C(=O)N2C[C@H]1CC[C@H]2C(N)=O [Example 13]

>  <Measurement Kind>
solubility

>  <Observed Result>
> 1000 µg/mL

$$$$
>  <Compound>
NC(=O)[C@@H]1CC[C@@H]2CN1C(=O)N2OC(F)(F)C(=O)OC1CCOCC1 [Example 12]

>  <Measurement Kind>
solubility

>  <Observed Result>
500 to 1000 µg/mL

$$$$

Pending compound:
Ask: Give me measured solubility, please, for this compound: CCOC(=O)C(F)(F)ON1C(=O)N2C[C@H]1CC[C@H]2C(N)=O [AF1-Et]
Reply: > 1000 µg/mL
